assay: Phase I clinical trial, human plasma pharmacokinetics of oral Compound 1; type: in vivo; details: human, plasma, po, 240 mg, Day 01, Cohort 6 (BID), 240 mg, oral twice daily; based on a single 12-hour dosing interval
property_measured: AUC(0-inf) (ng·h/mL)
Field format: number, assumed ng·h/mL, no unit text.

AUC(0-inf) reported for this compound "C[C@H](O)C(=O)N1CCC(CCn2c(Sc3cc4c(cc3Br)OCO4)nc3c(N)ncnc32)CC1" : 55000

---

experiment: Phase I clinical trial, human plasma pharmacokinetics of oral Compound 1; format: in vivo; conditions: human, plasma, po, 165 mg/m^2, Day 01, Cohort 3, Subject 301, 165 mg/m^2 (300 mg), oral daily
property_measured: half-life (min)
Field format: number, assumed min, no unit text.

half-life reported for this compound "C[C@H](O)C(=O)N1CCC(CCn2c(Sc3cc4c(cc3Br)OCO4)nc3c(N)ncnc32)CC1" : 690

---

experiment: Phase I clinical trial, human plasma pharmacokinetics of oral Compound 1; type: in vivo; settings: human, plasma, po, 340 mg/m^2, Day 01, Cohort 5 (BID), 340 mg/m^2 (270-370 mg), oral twice daily; read-out: Vz/F
property_measured: Vd/F (L)
Field format: number, assumed L, no unit text.

Vd/F reported for this compound "C[C@H](O)C(=O)N1CCC(CCn2c(Sc3cc4c(cc3Br)OCO4)nc3c(N)ncnc32)CC1" : 28.4

---

test: Phase I clinical trial, human plasma pharmacokinetics of oral Compound 1; format: in vivo; details: human, plasma, po, 340 mg/m^2, Day 01, Cohort 5, N = 2, 340 mg/m^2 (480-620 mg), oral daily
property_measured: Tmax (h)
Field format: number, assumed h, no unit text.

Tmax reported for this molecule "C[C@H](O)C(=O)N1CCC(CCn2c(Sc3cc4c(cc3Br)OCO4)nc3c(N)ncnc32)CC1" : 3

---

test: Phase I clinical trial, human plasma pharmacokinetics of oral Compound 1; format: in vivo; conditions: human, plasma, po, Day 21, Cohort 4, 176-245 mg/m^2 (340-540 mg), oral daily; read-out: Vz/F
property_measured: Vd/F
Remember to follow the number with its unit.

Vd/F reported for this compound "C[C@H](O)C(=O)N1CCC(CCn2c(Sc3cc4c(cc3Br)OCO4)nc3c(N)ncnc32)CC1" : 77.9 L

---

assay: Phase I clinical trial, human plasma pharmacokinetics of oral Compound 1; format: in vivo; settings: human, plasma, po, 340 mg/m^2, Day 21, Cohort 5, Subject 503, 340 mg/m^2 (620 mg), oral daily
property_measured: half-life (min)
Field format: number, assumed min, no unit text.

half-life reported for this compound "C[C@H](O)C(=O)N1CCC(CCn2c(Sc3cc4c(cc3Br)OCO4)nc3c(N)ncnc32)CC1" : 1160

---

experiment: Phase I clinical trial, human plasma pharmacokinetics of oral Compound 1; assay type: in vivo; details: both sexes, human, plasma, po, 50 mg/m^2, Day 01, Cohort 1, 50 mg/m^2 (100 mg), oral daily; read-out: Vz/F
property_measured: Vd/F (L)
Field format: number, assumed L, no unit text.

Vd/F reported for this molecule "C[C@H](O)C(=O)N1CCC(CCn2c(Sc3cc4c(cc3Br)OCO4)nc3c(N)ncnc32)CC1" : 50.5

---

Experiment: Phase I clinical trial, human plasma pharmacokinetics of oral Compound 1
Type: in vivo
Settings: human, plasma, po, 240 mg, Day 21, Cohort 6 (BID), 240 mg, oral twice daily; read-out: AUC(0-12)
Method: A human clinical study was initiated at a starting dose of 50 mg/m^2. Subjects had recurrent cancer refractory to available systemic therapy. Compound 1 was administered daily by mouth in tablet form for 21 consecutive days in a 28 day cycle to each enrolled subject. […] Plasma was collected pre-dose only for cycle 1 day 8. […]
property_measured: AUC(0-t) (ng·h/mL)
Field format: number, assumed ng·h/mL, no unit text.

AUC(0-t) reported for this molecule C[C@H](O)C(=O)N1CCC(CCn2c(Sc3cc4c(cc3Br)OCO4)nc3c(N)ncnc32)CC1 [Compound 1] : 67600
